This collection of values is drawn from patent US10793563B2.

Reported IC50 values are given for each entry in this list.
tested.on: UniProt Q9P2K8

{"compound": "CC1(CN2CCN(c3ccnc(-c4cnc5ccc(C(F)(F)F)cn45)n3)CC2c2cn[nH]c2)CC1 (centres unmarked)", "tested.on": "UniProt Q9P2K8", "IC50": "< 0.01 µM"}
{"compound": "Cc1cc(-c2cnc3ccc(Cl)cn23)nc(N2C[C@@H](c3c[nH]nc3C)O[C@@H](C)C2)n1", "tested.on": "UniProt Q9P2K8", "IC50": "< 0.01 µM"}
{"compound": "NC(=O)[C@@H]1CN(c2ccnc(-c3cnc4ccc(C(F)(F)F)cn34)n2)CCN1C1CC1", "tested.on": "UniProt Q9P2K8", "IC50": "0.1 to 1 µM"}
{"compound": "C[C@@H]1CN(c2ccnc(-c3cnc4ccc(C(F)(F)F)cn34)n2)C[C@H](C)N1S(C)(=O)=O", "tested.on": "UniProt Q9P2K8", "IC50": "0.1 to 1 µM"}
{"compound": "NC(=O)C1CN(c2ccnc(-c3cnc4ccc(C(F)(F)F)cn34)n2)CCN1CCC(F)(F)F (centres unmarked)", "tested.on": "UniProt Q9P2K8", "IC50": "0.01 to 0.1 µM"}
{"compound": "C[C@@H]1C[C@H](N=S(C)(C)=O)CN(c2ccnc(-c3cnc4cc(Cl)c(Cl)cn34)n2)C1", "tested.on": "UniProt Q9P2K8", "IC50": "0.01 to 0.1 µM"}
{"compound": "C[C@@H]1CN(c2nccc(-c3cnc4ccc(C(F)(F)F)cn34)n2)C[C@H](c2nn[nH]n2)O1", "tested.on": "UniProt Q9P2K8", "IC50": "0.1 to 1 µM"}
{"compound": "C[C@@H]1C[C@H](c2cn[nH]c2)CN(c2nccc(-c3cnc4ccc(Cl)cn34)n2)C1", "tested.on": "UniProt Q9P2K8", "IC50": "< 0.01 µM"}

* * *

tested.on: intracellular GCN2 (phosphorylation of the GCN2 substrate eIF2α) (Homo sapiens (Human))
protocol.text: GCN2 Cellular Inhibition Assay (AlphaScreen SureFire P-eIF2α Ser51, borrelidin-treated U2OS cells)
Assay type: cell-based
conditions: 10 μM borrelidin, 1 h, phosphorylated eIF2α Ser51, read-out: GCN2 Biomarker (IC50)
Reported IC50 values are given for each entry in this list.

{"molecule": "NC(=O)C1CN(c2ccnc(-c3cnc4ccc(C(F)(F)F)cn34)n2)CCN1 (centres unmarked)", "IC50": "500 to 5000 nM"}
{"molecule": "Cn1cc(C(=O)N2CCN(c3ccnc(-c4cnc5ccc(C(F)(F)F)cn45)n3)CC2c2cn[nH]c2)cn1 (centres unmarked)", "IC50": "500 to 5000 nM"}
{"molecule": "CN(C)C(=O)C1CCCN(c2ccnc(-c3cnc4ccc(C(F)(F)F)cn34)n2)C1 (centres unmarked)", "IC50": "500 to 5000 nM"}
{"molecule": "CC(C)(C)OC(=O)N1CC2(CCCN(c3ccnc(-c4cnc5ccc(Cl)cn45)n3)C2)C1", "IC50": "500 to 5000 nM"}
{"molecule": "Cc1oncc1[C@H]1CN(c2ccnc(-c3cnc4ccc(C(F)(F)F)cn34)n2)C[C@@H](C)O1", "IC50": "500 to 5000 nM"}
{"molecule": "FC(F)(F)c1ccc2ncc(-c3nccc(N4CCN(C5CC6(COC6)C5)[C@H](c5cn[nH]c5)C4)n3)n2c1", "IC50": "< 500 nM"}
{"molecule": "CS(=O)(=O)NC[C@@H]1CN(c2ccnc(-c3cnc4ccc(Cl)cn34)n2)CCO1", "IC50": "500 to 5000 nM"}
{"molecule": "C[C@@H]1CN(c2nccc(-c3cnc4ccc(C(F)(F)F)cn34)n2)C[C@@H](c2cn[nH]c2)O1", "IC50": "< 500 nM"}
{"molecule": "Cc1cnc(N2C[C@@H](C)O[C@@H](c3cn[nH]c3C)C2)nc1-c1cnc2ccc(Cl)cn12", "IC50": "500 to 5000 nM"}
{"molecule": "Cc1nn(C)cc1[C@@H]1CN(c2nccc(-c3cnc4ccc(C(F)(F)F)cn34)n2)C[C@H](C)O1", "IC50": "< 500 nM"}
{"molecule": "OCC1CCN(c2ccnc(-c3cnc4cc(F)c(Cl)cn34)n2)CC1c1ccccc1 (centres unmarked)", "IC50": "500 to 5000 nM"}
{"molecule": "CC1(F)CCCN(c2ccnc(-c3cnc4ccc(C(F)(F)F)cn34)n2)C1 (centres unmarked)", "IC50": "500 to 5000 nM"}
{"molecule": "CC1CCC(C(=O)O)CN1c1ccnc(-c2cnc3ccc(C(F)(F)F)cn23)n1 (centres unmarked)", "IC50": "500 to 5000 nM"}
{"molecule": "C[C@@H]1CN(c2nccc(-c3cnc4cc(F)c(Cl)cn34)n2)C[C@@H](c2cn[nH]c2)O1", "IC50": "500 to 5000 nM"}
{"molecule": "Cc1[nH]ncc1[C@H]1C[C@H](O)CN(c2ccnc(-c3cnc4ccc(C(F)(F)F)cn34)n2)C1", "IC50": "500 to 5000 nM"}
{"molecule": "C[C@@H]1CN(c2ccnc(-c3cnc4ccc(OC(F)(F)F)cn34)n2)C[C@H](c2cn[nH]c2)O1", "IC50": "< 500 nM"}
{"molecule": "NC(=O)[C@H]1CCCN(c2nccc(-c3cnc4ccc(C(F)(F)F)cn34)n2)C1", "IC50": "< 500 nM"}

* * *

Reported pIC50 values are given for each entry in this list.
tested.on: intracellular GCN2 (phosphorylation of the GCN2 substrate eIF2α) (Homo sapiens (Human), UniProt Q9P2K8)
Sequence (Q9P2K8 whole entry): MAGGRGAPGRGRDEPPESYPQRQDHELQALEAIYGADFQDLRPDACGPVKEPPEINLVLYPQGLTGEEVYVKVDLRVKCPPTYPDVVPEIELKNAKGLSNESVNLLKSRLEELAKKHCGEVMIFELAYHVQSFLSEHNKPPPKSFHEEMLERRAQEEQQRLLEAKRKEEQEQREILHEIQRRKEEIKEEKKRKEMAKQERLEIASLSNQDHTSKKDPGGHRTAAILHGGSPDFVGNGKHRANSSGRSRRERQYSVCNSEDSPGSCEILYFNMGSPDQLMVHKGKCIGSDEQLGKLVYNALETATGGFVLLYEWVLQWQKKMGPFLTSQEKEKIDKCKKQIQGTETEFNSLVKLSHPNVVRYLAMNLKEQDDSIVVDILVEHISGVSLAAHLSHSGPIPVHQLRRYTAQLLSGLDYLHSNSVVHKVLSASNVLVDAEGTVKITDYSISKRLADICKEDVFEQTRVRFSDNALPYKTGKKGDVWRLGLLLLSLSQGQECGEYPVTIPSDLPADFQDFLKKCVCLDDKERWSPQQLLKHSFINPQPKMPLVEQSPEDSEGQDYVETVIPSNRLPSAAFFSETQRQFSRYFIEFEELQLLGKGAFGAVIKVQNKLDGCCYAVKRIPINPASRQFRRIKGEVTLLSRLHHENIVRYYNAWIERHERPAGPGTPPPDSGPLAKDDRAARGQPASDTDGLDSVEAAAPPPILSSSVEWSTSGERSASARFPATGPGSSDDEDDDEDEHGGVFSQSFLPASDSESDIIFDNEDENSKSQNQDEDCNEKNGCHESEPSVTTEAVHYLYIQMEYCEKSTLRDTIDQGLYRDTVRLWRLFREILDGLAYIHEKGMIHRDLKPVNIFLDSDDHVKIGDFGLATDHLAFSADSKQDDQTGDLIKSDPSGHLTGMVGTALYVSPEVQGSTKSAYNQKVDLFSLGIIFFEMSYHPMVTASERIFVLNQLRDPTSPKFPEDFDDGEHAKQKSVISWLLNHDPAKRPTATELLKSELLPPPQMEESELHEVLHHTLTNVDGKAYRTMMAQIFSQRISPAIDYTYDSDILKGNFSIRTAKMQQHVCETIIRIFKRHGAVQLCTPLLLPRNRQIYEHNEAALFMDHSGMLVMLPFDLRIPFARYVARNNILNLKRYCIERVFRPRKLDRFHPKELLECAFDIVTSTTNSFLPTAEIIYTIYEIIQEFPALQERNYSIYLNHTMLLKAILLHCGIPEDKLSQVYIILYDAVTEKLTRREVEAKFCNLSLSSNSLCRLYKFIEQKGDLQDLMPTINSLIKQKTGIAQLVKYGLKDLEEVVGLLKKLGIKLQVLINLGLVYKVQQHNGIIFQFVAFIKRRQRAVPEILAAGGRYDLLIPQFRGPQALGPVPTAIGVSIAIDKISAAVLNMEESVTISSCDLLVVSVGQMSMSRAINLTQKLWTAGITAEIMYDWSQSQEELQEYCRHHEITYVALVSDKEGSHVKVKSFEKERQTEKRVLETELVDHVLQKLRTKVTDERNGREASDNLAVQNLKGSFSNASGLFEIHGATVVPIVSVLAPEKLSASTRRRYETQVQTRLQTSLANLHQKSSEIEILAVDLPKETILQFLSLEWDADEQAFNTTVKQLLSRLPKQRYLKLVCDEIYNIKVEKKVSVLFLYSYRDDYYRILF
protocol.text: GCN2 Cellular Inhibition Assay (AlphaScreen SureFire P-eIF2α Ser51, borrelidin-treated U2OS cells)
Assay type: cell-based
conditions: 10 μM borrelidin, 1 h, phosphorylated eIF2α Ser51, read-out: GCN2 Biomarker (IC50)
pIC50: −log10 of the molar value.
readout: pIC50

{"molecule": "N#C[C@H]1CCCN(c2ccnc(-c3cnc4ccc(C(F)(F)F)cn34)n2)C1", "readout": "pIC50", "observed.value": "5.30 to 6.30"}
{"molecule": "Cc1cnc(N2C[C@@H](c3cn[nH]c3C)O[C@@H](C)C2)nc1-c1cnc2ccc(Cl)cn12", "readout": "pIC50", "observed.value": "5.30 to 6.30"}
{"molecule": "Cc1cnc(N2C[C@@H](C)C[C@@H](c3cn[nH]c3)C2)nc1-c1cnc2ccc(Cl)cn12", "readout": "pIC50", "observed.value": "> 6.30"}
{"molecule": "Fc1cc2ncc(-c3nccc(N4CCOC(c5cn[nH]c5)C4)n3)n2cc1Cl (stereo not shown)", "readout": "pIC50", "observed.value": "> 6.30"}

* * *

tested.on: intracellular GCN2 (phosphorylation of the GCN2 substrate eIF2α) (Homo sapiens (Human))
protocol.text: GCN2 Cellular Inhibition Assay (AlphaScreen SureFire P-eIF2α Ser51, borrelidin-treated U2OS cells)
Assay type: cell-based
conditions: 10 μM borrelidin, 1 h, phosphorylated eIF2α Ser51, read-out: GCN2 Biomarker (IC50)

{"compound": "CC1CCC(C(N)=O)CN1c1ccnc(-c2cnc3ccc(C(F)(F)F)cn23)n1 (centres unmarked)", "IC50": "< 500 nM"}
{"compound": "CC(C)n1cc(C2(O)CCCN(c3ccnc(-c4cnc5ccc(Cl)cn45)n3)C2)nn1 (centres unmarked)", "IC50": "> 5000 nM"}
{"compound": "NC(=O)[C@H]1CCCN(c2ccnc(-c3cnc4ccc(C(F)(F)F)cn34)n2)C1", "IC50": "< 500 nM"}
{"compound": "CS(=O)(=O)N1CC2(CN(c3ccnc(-c4cnc5ccc(C(F)(F)F)cn45)n3)CCO2)C1", "IC50": "500 to 5000 nM"}
{"compound": "CS(=O)(=O)NC[C@@H]1CN(c2nccc(-c3cnc4ccc(C(F)F)cn34)n2)CCO1", "IC50": "< 500 nM"}
{"compound": "FC(F)(F)c1ccc2ncc(-c3nccc(N4CCN(C5CC5)C(c5cn[nH]c5)C4)n3)n2c1 (stereo in doubt)", "IC50": "< 500 nM"}
{"compound": "CS(=N)(=O)C[C@H]1CCCN(c2ccnc(-c3cnc4ccc(Cl)cn34)n2)C1 (stereo in doubt)", "IC50": "500 to 5000 nM"}
{"compound": "Cc1n[nH]nc1[C@H]1C[C@@H](C)CN(c2ccnc(-c3cnc4ccc(C(F)(F)F)cn34)n2)C1", "IC50": "500 to 5000 nM"}

* * *

// IC50 collected for UniProt:Q9P2K8

{"compound": "C[C@@H]1CN(c2ccnc(-c3cnc4ccc(C(F)(F)F)cn34)n2)C[C@H](C)N1C(=O)CC1COC1", "IC50": "100 to 1000 nM"}
{"compound": "Cc1[nH]ncc1C1CN(c2ccnc(-c3cnc4ccc(Cl)cn34)n2)CC(C)N1S(C)(=O)=O (stereo not shown)", "IC50": "< 10 nM"}
{"compound": "CC1(C)CN(c2ccnc(-c3cnc4ccc(C(F)(F)F)cn34)n2)CCN1CC(F)(F)F", "IC50": "100 to 1000 nM"}
{"compound": "C[C@@H]1C[C@H](N=S(C)(C)=O)CN(c2ccnc(-c3cnc4ccc(C#N)cn34)n2)C1", "IC50": "10 to 100 nM"}
{"compound": "C[C@H]1C[C@H](c2cn[nH]c2)CN(c2nccc(-c3cnc4ccc(C5CC5)cn34)n2)C1", "IC50": "10 to 100 nM"}
{"compound": "CC(=O)N1C(C)CN(c2ccnc(-c3cnc4ccc(Cl)cn34)n2)CC1c1cn[nH]c1 (stereo not shown)", "IC50": "10 to 100 nM"}
{"compound": "CC1(C)C[C@@H]1CN1CCN(c2ccnc(-c3cnc4ccc(C(F)(F)F)cn34)n2)C[C@@H]1c1cn[nH]c1", "IC50": "10 to 100 nM"}
{"compound": "Cc1[nH]ncc1[C@@H]1CN(c2nccc(-c3cnc4ccc(Cl)cn34)n2)C[C@@H](C)O1 (stereo in doubt)", "IC50": "10 to 100 nM"}
{"compound": "Cc1[nH]ncc1[C@H]1C[C@H](N=S(C)(C)=O)CN(c2ccnc(-c3cnc4ccc(C(F)(F)F)cn34)n2)C1", "IC50": "100 to 1000 nM"}
{"compound": "Cc1oncc1[C@@H]1CN(c2ccnc(-c3cnc4ccc(C(F)(F)F)cn34)n2)C[C@@H](C)O1", "IC50": "100 to 1000 nM"}
{"compound": "CC(=O)N1[C@H](C)CN(c2ccnc(-c3cnc4ccc(C(F)(F)F)cn34)n2)C[C@@H]1C", "IC50": "10 to 100 nM"}
{"compound": "Cc1cc(-c2cnc3ccc(Cl)cn23)nc(N2C[C@@H](C)O[C@@H](c3c[nH]nc3C)C2)n1", "IC50": "10 to 100 nM"}
{"compound": "CN(C)C(=O)COCC1CN(c2ccnc(-c3cnc4ccc(C(F)(F)F)cn34)n2)CC(C)(C)O1 (stereo not shown)", "IC50": "100 to 1000 nM"}
{"compound": "N[C@H]1C[C@H](O)CN(c2ccnc(-c3cnc4ccc(C(F)(F)F)cn34)n2)C1", "IC50": "100 to 1000 nM"}
{"compound": "FC(F)(F)c1ccc2ncc(-c3ccnc(N4CCN(C[C@@H]5CCCOC5)[C@H](c5cn[nH]c5)C4)n3)n2c1", "IC50": "< 10 nM"}
{"compound": "CC(O)C(=O)N[C@H]1C[C@H](O)CN(c2ccnc(-c3cnc4ccc(C(F)(F)F)cn34)n2)C1 (stereo partly shown)", "IC50": "100 to 1000 nM"}
